These entries and their values trace back to paper PMC12040169.

method_summary: in vitro
test_parameters: human, hela cells, % viability
Quick reference: viability at 28.5 h, 10 µM of the listed items.

# compound, viability at 28.5 h, 10 µM (%)
rows = [
    ("CCCc1nn(CC(=O)N(C)C)c(=O)c2cc3ccsc3n12", 84.4),
    ("O=C(O)C(c1c[nH]c2ccc(OCc3ccccc3)cc12)N1CCCC1 (centres unmarked)", 97.6),
    ("Cc1cc2ccccc2n2c(SCC(=O)NCc3ccco3)nnc12", 107),
    ("CC(=O)O[B-]1(OC(C)=O)N(c2ccc(S(N)(=O)=O)cc2)N=C(c2ccccc2)N=[N+]1c1ccccc1", 87.1),
    ("COc1ccccc1N1CCN(CC(CC(=O)Nc2ccc3c(c2)OCO3)C(=O)O)CC1 (centres unmarked)", 95),
    ("O=C(NCCc1ccc(Cl)cc1)C1CCN(C(=O)c2ccc3nsnc3c2)C1 (centres unmarked)", 95.2),
    ("Brc1c(OCc2ccccc2)ccc2[nH]ccc12", 96.5),
    ("O=c1cc(O)cc(CCc2ccccc2)o1", 117),
    ("c1csc(COc2nccnc2-c2ccsc2)c1", 100),
    ("CC(C)CC(=O)N1C[C@H]2NC(=O)c3ccccc3C(=O)[C@@]2(C)C1", 96.1),
    ("CCN(CC)C(=O)C1CCCN(C(=O)NCCOC)C1 (centres unmarked)", 99.2),
    ("COc1ccc(NC(=O)c2cn(C)nc2CC2CCN(CCc3ccccc3)CC2)cc1", 90.9),
    ("O=C(O)CCNc1ccc(Br)cc1C(=O)O", 96.9),
    ("Cc1nccn1CCNC(=O)Cn1cnc2ccccc21", 102),
    ("Fc1ccc(OCCCCCN2CCC3(CC2)OCCc2c3[nH]c3ccccc23)cc1 [CBK113516T]", 2.48),
    ("O=C(NCCCc1ccccn1)c1cc(C2CCCCC2)no1", 89.4),
    ("COc1ccc2c(c1)CCN=C2C[C@H]1CN(C(=O)C(C)(C)C)CC[C@H]1CC(=O)O", 92.5),
    ("COc1nc(OC)nc(Sc2ccc(N)cc2)n1", 88.3),
    ("O=C(N1CCOCC1)C12CC3CC(CC(C3)C1)C2", 90.3),
    ("Cc1cc(S(=O)(=O)Nc2ccccc2-c2nncn2C)c(C)o1", 85.9),
    ("CN1CCN(c2cc(-c3cccc(CO)c3)nc3ccnn23)CC1", 98.1),
    ("O=C1Cc2ccccc2C2(CCN(C(=O)NCc3cccc(F)c3)CC2)N1", 81),
    ("CN(C)C(=O)Cn1nc(-c2cc3c(s2)CCC3)oc1=O", 99),
    ("Cc1ncc(CN2CCOC(c3cc(C(=O)NCC(C)C)c4ccccc4n3)C2)s1 (centres unmarked)", 89.9),
    ("CCC(C)C(=O)O[C@H]1C[C@@H](C)C=C2C=C[C@H](C)[C@H](CC[C@@H]3C[C@@H](O)CC(=O)O3)[C@H]21 (some centres unmarked)", 85.2),
    ("O=C(CSCc1c(Cl)cccc1Cl)Nc1cccc(-c2nnc(-c3ccccc3)o2)c1", 96.7),
    ("Cc1cccc(C(=O)NCCc2nc3ccccc3[nH]2)c1", 100),
    ("COC(=O)c1cnn2c(C)c(Cc3cccc(Br)c3)c(C)nc12", 90.4),
    ("O=C1c2ccccc2S(=O)(=O)N1CC(O)Cn1c2ccc(Br)cc2c2cc(Br)ccc21 (centres unmarked)", 112),
    ("CCOc1cc(S(=O)(=O)NCCCN2CCOCC2)ccc1Br", 87.4),
    ("O=C(C[C@@H]1CCNC[C@@H]1Cc1cc(-c2ccc(F)cc2)on1)Nc1ccccc1", 96.4),
    ("Cc1nc2nc(-c3ccc(Cl)s3)cn2nc1C", 103),
    ("COc1ccc(C(=O)CSc2nnc3n(N)cnn23)cc1", 94.6),
    ("O=C(Nc1cccc2cccnc12)c1cccc2ccccc12", 72.7),
    ("CCOC(=O)NC(=O)c1cn(N2CCOCC2)c(=O)[nH]c1=O", 104),
    ("Cn1nnc2cc(C(=O)N(CCO)c3ccccc3)ccc21", 95.5),
    ("CC1(O)CCCN(C(=O)c2c[nH]nc2-c2cc3ccccc3o2)C1 (centres unmarked)", 88.3),
    ("CCOC1C(OCC)N(S(=O)(=O)c2ccc(C)cc2)CCN1S(=O)(=O)c1ccc(C)cc1 (centres unmarked)", 116),
]
